For each record, write down the corresponding Serum IgG @ 0.3 mg/kg.
- Tested on: human IgG in mouse serum
- Experiment: Immunoglobulin G (IgG) mRNA in vivo evaluation using lipid nanoparticle compositions
- Design: species or system mice
- Stated Conditions: LNP-formulated lipid, 0.3 mg mRNA/kg, tail vein injection, μg IgG/mL serum 24 hours after administration
Use µg/mL as the unit, but write only the number.

Entry C=CCCCCCCCCN(CCCCCCCCCC)C(=O)CCCCCCCN(CCCCCCCC(=O)N(CCCCCCCCC=C)CCCCCCCCCC)[C@H]1CC[C@@H](O)CC1 [(1S, 4S) I-51] has what Serum IgG @ 0.3 mg/kg? 80.37

Entry C=CCCCCCCCCN(CCCCCCCCC=C)C(=O)CCCCCCCN(CCCCCCCC(=O)N(CCCCCCCCCC)CCCCCCCCCC)[C@H]1CC[C@@H](O)CC1 [(1S, 4S) I-57] has what Serum IgG @ 0.3 mg/kg? 84.4

Entry CCCCCCCCCCN(CCCCCCCCCC)C(=O)CCCCCCCN(CCCCCCCC(=O)N(CCCCCCCCCC)CCCCCCCCCC)C1CCC[C@H]1O (mixture of isomers) [(rac)-(1RS, 2RS) I-48] has what Serum IgG @ 0.3 mg/kg? 32.85

Entry CCCCCCCCCCCCN(CCCCCC)C(=O)CCCCCCCN(CCCCCCCC(=O)N(CCCCCC)CCCCCCCCCCCC)[C@H]1CC[C@@H](O)CC1 [(1S, 4S) I-52] has what Serum IgG @ 0.3 mg/kg? 40.24
